remaining activity at 100 µM values by entry
biological target: mouse Sema3A binding to CHO cells stably-expressing mouse neuropilin (Mus musculus, UniProt O08665); construct: host or cells: CHO cells stably expressing the neuropilin partner; experiment: Inhibitory activity for the neuropilin-binding activity caused by Sema3A (Test 2); settings: 1 h, 100 μM test compound, AP-Sema3A, smaller value = more potent binding inhibition, read-out: residual ratio (%) of avidity (Sema3A-neuropilin binding)
Sequence (O08665 21-772): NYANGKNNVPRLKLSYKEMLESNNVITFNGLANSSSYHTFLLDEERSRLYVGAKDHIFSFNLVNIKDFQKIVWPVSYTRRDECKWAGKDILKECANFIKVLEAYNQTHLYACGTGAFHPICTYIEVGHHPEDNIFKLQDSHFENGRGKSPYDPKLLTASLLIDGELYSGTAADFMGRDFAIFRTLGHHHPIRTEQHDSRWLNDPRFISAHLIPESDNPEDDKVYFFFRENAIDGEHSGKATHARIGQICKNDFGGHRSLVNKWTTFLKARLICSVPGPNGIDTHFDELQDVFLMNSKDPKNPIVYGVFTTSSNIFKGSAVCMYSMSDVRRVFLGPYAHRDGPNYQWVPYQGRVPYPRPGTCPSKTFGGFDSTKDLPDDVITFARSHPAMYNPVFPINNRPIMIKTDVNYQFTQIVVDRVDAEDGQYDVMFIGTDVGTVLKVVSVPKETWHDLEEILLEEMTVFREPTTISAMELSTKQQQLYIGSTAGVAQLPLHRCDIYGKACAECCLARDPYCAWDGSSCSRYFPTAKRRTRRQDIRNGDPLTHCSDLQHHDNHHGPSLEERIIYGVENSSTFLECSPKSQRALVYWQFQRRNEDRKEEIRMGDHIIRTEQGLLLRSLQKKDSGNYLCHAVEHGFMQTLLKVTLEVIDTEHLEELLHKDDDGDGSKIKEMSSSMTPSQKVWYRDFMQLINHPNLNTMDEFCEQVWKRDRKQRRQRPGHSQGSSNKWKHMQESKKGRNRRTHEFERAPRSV
Structures can show the parent of a compound that is named as a salt.

- MOLECULE: "Cn1cc(-c2coc3cc(O)c(O)c(C(=O)OCCN(CC(=O)O)CC(=O)O)c3c2=O)c(=O)c2cc(O)c(O)cc21"
  remaining activity at 100 µM [%]: 62.1
- MOLECULE: "COC(=O)CCOCCOC(=O)c1c(O)c(O)cc2occ(-c3cn(C)c4cc(O)c(O)cc4c3=O)c(=O)c12"
  remaining activity at 100 µM [%]: 69.4
- MOLECULE: "Cn1cc(-c2coc3cc(O)c(O)c(C(=O)OCCOCCC(=O)O)c3c2=O)c(=O)c2cc(O)c(O)cc21"
  remaining activity at 100 µM [%]: 56.5
- MOLECULE: "Cn1cc(-c2coc3cc(O)c(O)c(C(=O)OCCN4CCC(O)C4)c3c2=O)c(=O)c2cc(O)c(O)cc21 (stereo not shown)"
  remaining activity at 100 µM [%]: 87.1
- MOLECULE: "Cn1cc(-c2coc3cc(O)c(O)c(C(=O)OCCOCCOCCOCCOCCO)c3c2=O)c(=O)c2cc(O)c(O)cc21"
  remaining activity at 100 µM [%]: 49.3
- MOLECULE: "Cn1cc(-c2coc3cc(O)c(O)c(C(=O)OCCOCCC(=O)N[C@@H](CCC(=O)O)C(=O)O)c3c2=O)c(=O)c2cc(O)c(O)cc21"
  remaining activity at 100 µM [%]: 58.5
- MOLECULE: "CN1CCN(C)C(COC(=O)c2c(O)c(O)cc3occ(-c4cn(C)c5cc(O)c(O)cc5c4=O)c(=O)c23)C1 (stereo not shown) [Example 25, hydrochloride]"
  remaining activity at 100 µM [%]: 90.5

---

molecular target: mouse semaphorin 3A (Sema3A) (Mus musculus); assay: Inhibitory activity for the collapse activity caused by Sema3A (growth cone collapse assay, Test 1); type: cell-based; conditions: 3 μM test compound; chick embryo dorsal root ganglion; 3 units/mL mouse Sema3A; smaller value = more potent inhibition; read-out: residual ratio (%) of Sema3A activity (collapse assay)
Structures can show the parent of a compound that is named as a salt.

- MOLECULE: "Cn1cc(-c2coc3cc(O)c(O)c(C(=O)N[C@@H](CCC(=O)O)C(=O)O)c3c2=O)c(=O)c2cc(O)c(O)cc21 [Example 5]"
  SYSTEM_TESTED: "mouse semaphorin 3A (Sema3A) (Mus musculus)"
  UNIT: "%"
  CENSORING_OPERATOR: "="
  remaining activity at 3 µM: 3.3
- MOLECULE: "Cc1c(-c2coc3cc(O)c(O)c(C(=O)OCc4cn(CC(=O)N[C@@H](CCC(=O)O)C(=O)O)nn4)c3c2=O)c(=O)c2cc(O)c(O)cc2n1C [Example 8]"
  SYSTEM_TESTED: "mouse semaphorin 3A (Sema3A) (Mus musculus)"
  UNIT: "%"
  CENSORING_OPERATOR: "="
  remaining activity at 3 µM: 21
- MOLECULE: "Cn1cc(-c2coc3cc(O)c(O)c(C(=O)OCC(O)CO)c3c2=O)c(=O)c2cc(O)c(O)cc21 (centres unmarked) [Example 23]"
  SYSTEM_TESTED: "mouse semaphorin 3A (Sema3A) (Mus musculus)"
  UNIT: "%"
  CENSORING_OPERATOR: "<"
  remaining activity at 3 µM: 10
- MOLECULE: "Cn1cc(-c2coc3cc(O)c(O)c(C(=O)OC[C@H]4CC[C@H](N)CC4)c3c2=O)c(=O)c2cc(O)c(O)cc21 [Example 24, hydrochloride]"
  SYSTEM_TESTED: "mouse semaphorin 3A (Sema3A) (Mus musculus)"
  UNIT: "%"
  CENSORING_OPERATOR: "<"
  remaining activity at 3 µM: 10
- MOLECULE: "Cc1c(-c2coc3cc(O)c(O)c(C(=O)OCc4cn(CC(=O)N[C@@H](CCC(=O)O)C(=O)O)nn4)c3c2=O)c(=O)n(C)c2cc(O)c(O)cc12 [Example 15]"
  SYSTEM_TESTED: "mouse semaphorin 3A (Sema3A) (Mus musculus)"
  UNIT: "%"
  CENSORING_OPERATOR: "="
  remaining activity at 3 µM: 0
- MOLECULE: "Cc1nc2cc(O)c(O)cn2c(=O)c1-c1coc2cc(O)c(O)c(C(=O)OCc3cn(CC(=O)N[C@@H](CCC(=O)O)C(=O)O)nn3)c2c1=O [Example 17]"
  SYSTEM_TESTED: "mouse semaphorin 3A (Sema3A) (Mus musculus)"
  UNIT: "%"
  CENSORING_OPERATOR: "="
  remaining activity at 3 µM: 3.3
- MOLECULE: "Cn1cc(-c2coc3cc(O)c(O)c(C(=O)OCC[C@H](N)C(=O)O)c3c2=O)c(=O)c2cc(O)c(O)cc21 [Example 27, hydrochloride]"
  SYSTEM_TESTED: "mouse semaphorin 3A (Sema3A) (Mus musculus)"
  UNIT: "%"
  CENSORING_OPERATOR: "<"
  remaining activity at 3 µM: 10
- MOLECULE: "Cn1cc(-c2coc3cc(O)c(O)c(C(=O)OCC(N)=O)c3c2=O)c(=O)c2cc(O)c(O)cc21 [Example 30]"
  SYSTEM_TESTED: "mouse semaphorin 3A (Sema3A) (Mus musculus)"
  UNIT: "%"
  CENSORING_OPERATOR: "<"
  remaining activity at 3 µM: 40

---

Molecular target: mouse semaphorin 3A (Sema3A) (Mus musculus, UniProt O08665)
Test: Inhibitory activity for the collapse activity caused by Sema3A (growth cone collapse assay, Test 1)
Format: cell-based
Details: 1 μM test compound; chick embryo dorsal root ganglion; 3 units/mL mouse Sema3A; smaller value = more potent inhibition; read-out: residual ratio (%) of Sema3A activity (collapse assay)
Protocol: Inhibitory Activity for the Collapse Activity Caused by Sema3A 96 well-plate (SUMITOMO BAKELITE CO., LTD.) which was beforehand coated with polylysine was further coated with laminin (10 μL laminin, at room temperature, for 1 hour). […] The medium was left to stand at room temperature for 15 minutes to make the tissue fragment fixed, and the ratio of the retracted growth cone was measured under a microscope.
Counter-ions that a name gives are not always drawn.
remaining activity at 1 µM values by entry

- COMPOUND: "Cc1c(-c2coc3cc(O)c(O)c(C(=O)OCc4cn(CC(=O)N[C@@H](CCC(=O)O)C(=O)O)nn4)c3c2=O)c(=O)n(C)c2cc(O)c(O)cc12"
  UNIT: "%"
  CENSORING_OPERATOR: "="
  remaining activity at 1 µM: 5.4
- COMPOUND: "Cn1cc(-c2coc3cc(O)c(O)c(C(=O)OCC[C@H](N)C(=O)O)c3c2=O)c(=O)c2cc(O)c(O)cc21 [Example 27, hydrochloride]"
  UNIT: "%"
  CENSORING_OPERATOR: "<"
  remaining activity at 1 µM: 10
- COMPOUND: "Cn1cc(-c2coc3cc(O)c(O)c(C(=O)OCc4cn(CC(=O)N[C@@H](CCCNC(=N)N)C(=O)O)nn4)c3c2=O)c(=O)c2cc(O)c(O)cc21 [Example 4, trifluoroacetate]"
  UNIT: "%"
  CENSORING_OPERATOR: "="
  remaining activity at 1 µM: 6
- COMPOUND: "O=C(O)CC[C@H](NC(=O)Cn1cc(COC(=O)c2c(O)c(O)cc3occ(-c4cc5cc(O)c(O)cc5oc4=O)c(=O)c23)nn1)C(=O)O"
  UNIT: "%"
  CENSORING_OPERATOR: "="
  remaining activity at 1 µM: 7.9
- COMPOUND: "Cn1cc(-c2coc3cc(O)c(O)c(C(=O)N[C@@H](CCC(=O)O)C(=O)O)c3c2=O)c(=O)c2cc(O)c(O)cc21"
  UNIT: "%"
  CENSORING_OPERATOR: "="
  remaining activity at 1 µM: 5.1
- COMPOUND: "Cn1cc(-c2coc3cc(O)c(O)c(C(=O)OCc4cn(CC(=O)N[C@@H](CCC(=O)O)C(=O)O)nn4)c3c2=O)c(=O)c2cc(O)c(O)cc21"
  UNIT: "%"
  CENSORING_OPERATOR: "="
  remaining activity at 1 µM: 4
- COMPOUND: "Cn1cc(-c2coc3cc(O)c(O)c(C(=O)OCC(=O)N[C@@H](CCC(=O)O)C(=O)O)c3c2=O)c(=O)c2cc(O)c(O)cc21"
  UNIT: "%"
  CENSORING_OPERATOR: "="
  remaining activity at 1 µM: 4.2
